Source of measurements: the supplement of paper PMC12645437

Target: T1, CRBN, Q96SW2;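 also: pooled lentiviral library of zinc finger degron-EGFP fusions in mCherry-positive Jurkat cells, FACS-sorted after compound exposure, with degron abundance counted by next-generation sequencing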
T1 chain: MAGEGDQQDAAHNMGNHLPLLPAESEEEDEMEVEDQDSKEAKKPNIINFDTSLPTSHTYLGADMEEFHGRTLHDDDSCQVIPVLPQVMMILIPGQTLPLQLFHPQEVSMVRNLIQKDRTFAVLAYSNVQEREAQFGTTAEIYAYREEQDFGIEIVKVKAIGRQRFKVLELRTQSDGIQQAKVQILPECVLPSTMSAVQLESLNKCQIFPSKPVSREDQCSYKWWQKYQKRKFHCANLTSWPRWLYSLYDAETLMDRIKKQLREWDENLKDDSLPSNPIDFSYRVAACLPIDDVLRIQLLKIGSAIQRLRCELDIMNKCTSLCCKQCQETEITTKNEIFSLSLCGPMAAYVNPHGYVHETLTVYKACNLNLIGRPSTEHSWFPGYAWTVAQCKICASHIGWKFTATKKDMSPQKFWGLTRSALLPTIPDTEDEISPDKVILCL
Test: log2 fold change of degron read counts, EGFP-low vs EGFP+ sorted cells (limma voom), compound-induced degradation; higher = more compound-induced degradation of the degron-EGFP fusion; degrons are variants of IKZF1/3 zinc finger 2; compound dose not given here
Details: Jurkat; 18 h; compound: compound 33 (diphenyl IMiD analogue)
The full ranking holds about 8,300 sequences; the median of “log2 fold change of degron read counts, EGFP-low vs EGFP+ sorted cells (limma voom), compound-induced degradation” is about -1.1, and the highest 2% start at about 3.2. Many of the other results were omitted from the sample, so the highest values are more common in it than they were.
Listed next: entries and their corresponding log2 fold change of degron read counts.

Reference set, count: 2
FRCDICGAAFTQKGNLLRHIKL [46F_47R_49D_50I_52G_53A_54A_55F_67L_, Q9UKT9] | 2.34
FYCDICGAAFTQKGNLLRHIKL [46F_47Y_49D_50I_52G_53A_54A_55F_67L_, Q9UKT9] | 2.4

For reference, reported log2 fold change of degron read counts for LCCPICGFFCTQKGNLLRHIKL [46L_47C_49P_50I_52G_53F_54F_55C_67L_, Q9UKT9] stands at 2.77

Looking up LWCPICGFFCTQKGNLLRHIKL [46L_47W_49P_50I_52G_53F_54F_55C_67L_, Q9UKT9] , I found its log2 fold change of degron read counts recorded as 2.81
